The values you see were collected from ChEMBL document CHEMBL6153076.

assay-info: Selectivity index, ratio of IC50 for antiproliferative activity against human MCF-10A cells assessed as inhibition of cell proliferation to IC50 for antiproliferative activity against human MDA-MB-231 cells assessed as inhibition of cell proliferation
Type: toxicity, cell-based
cond: MCF-10A cells and MDA-MB-231 cells, read-out: Ratio IC50

smiles-entry | selectivity ratio
Cc1sc2c(c1C)C(c1ccc(Cl)cc1)=N[C@@H](CC(=O)N1CCN(C(=O)CCl)CC1)c1nnc(C)n1-2 | 1.55
Cc1sc2c(c1C)C(c1ccc(Cl)cc1)=N[C@@H](CC(=O)NCCc1ccc(NC(=O)CCl)cc1)c1nnc(C)n1-2 | 2.26
Cc1sc2c(c1C)C(c1ccc(Cl)cc1)=N[C@@H](CC(=O)OC(C)(C)C)c1nnc(C)n1-2 | 1.79
Cc1sc2c(c1C)C(c1ccc(Cl)cc1)=N[C@@H](CC(=O)NCC1CCN(C(=O)CCl)CC1)c1nnc(C)n1-2 | 1.47

----------
Test system: MDA-MB-231
assay-info: cells
cond: Homo sapiens, MDA-MB-231, 72 h
Description: Antiproliferative activity against human MDA-MB-231 cells assessed as inhibition of cell proliferation incubated for 72 hrs by MTT assay
As shown below, each of these compounds has a reported IC50 value.

smiles-entry | IC50
Cc1sc2c(c1C)C(c1ccc(Cl)cc1)=N[C@@H](CC(=O)Nc1ccc(N3CCN(C(=O)CCl)CC3)cc1)c1nnc(C)n1-2 | 5.31 µM
Cc1sc2c(c1C)C(c1ccc(Cl)cc1)=N[C@@H](CC(=O)NCCOCCOCCNC(=O)CCl)c1nnc(C)n1-2 | 3.03 µM
Cc1sc2c(c1C)C(c1ccc(Cl)cc1)=N[C@@H](CC(=O)NCCCCCNC(=O)CCl)c1nnc(C)n1-2 | 5.57 µM
Cc1sc2c(c1C)C(c1ccc(Cl)cc1)=N[C@@H](CC(=O)NCCCNC(=O)CCl)c1nnc(C)n1-2 | 4.57 µM
Cc1sc2c(c1C)C(c1ccc(Cl)cc1)=N[C@@H](CC(=O)NCCCN1CCN(C(=O)CCl)CC1)c1nnc(C)n1-2 | 2.26 µM
